Data credit: PubChem BioAssay AID871

test-protocol: enhancers of STAT3 transcriptional signaling – U3A cells, luciferase, luminescence, MLSCN library, primary screen (AID 871);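 further: 0% = background luminescence of wells with medium and substrate only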
experimental-conditions: IL-6 STAT3-luciferase reporter, at 5.6 µM, 100% = signal with IL-6 EC80 alone
The campaign covered roughly 190,000 compounds. About 1,800 (0.95%) were called active.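 How the source made its calls: active means activation above the screen-wide mean of compound activation plus 3 SD (cut at about 130% in these data); inactive means the rest.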 The full list was thinned out, with actives kept by preference.
Classes used: active, inactive

molecule	assigned-label
CC(C)COP(=O)(c1ccc(N(C)C)cc1)C(Nc1ccccc1)c1cccnc1 (configuration not stated)	inactive
O=C(NCCCO)/C(=C\C=C\c1ccccc1)NC(=O)c1ccccc1Cl	inactive
Cc1ccc(/C=N/NC(=O)COc2ccccc2-c2ccccc2)cc1	active
COc1ccc(C=Nc2cccc3ncccc23)cc1	inactive
O=C(c1ccccc1)N1CCN(c2ccc([N+](=O)[O-])c(NCc3ccco3)c2)CC1	inactive
COc1cc(OC)cc(C(=O)N[C@H](C(=O)Nc2nc3ccccc3[nH]2)C(C)C)c1	active
CCOc1ccc(NC(=S)N2CCC(N(C)CC3CCCO3)CC2)cc1 (configuration not stated)	inactive
COc1cc(/C=C/C(=O)OCC(=O)NC(=O)NCc2ccccc2)ccc1OCC#N	inactive
Cc1ccc(OCC(=O)N/N=C\c2ccco2)c(C)c1	inactive
O=[N+]([O-])c1ccccc1Nc1ccc(O)cc1	inactive
Cc1c(Cl)c([N+](=O)[O-])nn1CCCC(=O)NC(C)c1ccccc1 (configuration not stated)	inactive
COc1ccc(OC(C)C(=O)NCCc2nc3ccccc3[nH]2)cc1 (configuration not stated)	inactive
CSCCC(NC(=O)COc1ccccc1)C(=O)OCC(=O)c1cc2ccccc2o1 (configuration not stated)	inactive
COc1cc(OC)cc(C(=O)N[C@H](C(=O)OCC(=O)NC(C)c2ccccc2)C(C)C)c1 (some centres not stated)	inactive
COc1ccc(/C=C(\NC(=O)c2ccc(OC)c(OC)c2)C(=O)NCCc2c[nH]c3ccccc23)cc1	inactive
CC(=O)Nc1ccc(S(=O)(=O)N2CCN(c3ccc([N+](=O)[O-])c(NCCN4CCOCC4)c3)CC2)cc1	inactive
O=[N+]([O-])c1ccc(N2CCN(S(=O)(=O)c3ccc4ccccc4c3)CC2)cc1NCc1ccco1	active

###

test-protocol: enhancers of STAT3 transcriptional signaling – U3A cells, luciferase, luminescence, MLSCN library, primary screen (AID 871);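 further: 0% = background luminescence of wells with medium and substrate only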
experimental-conditions: IL-6 STAT3-luciferase reporter, at 5.6 µM, 100% = signal with IL-6 EC80 alone
In all, about 190,000 compounds went through this assay and about 1,800 (0.95%) were called active.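 Rule for the calls: active = activation above the screen-wide mean of compound activation plus 3 SD (cut at about 130% in these data); inactive = the rest.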 Shown is part of a subset that was picked to be rich in actives.
Classes used: t = active, f = inactive

compound	assigned-label
COc1ccc(C2c3[nH]c4ccccc4c3CCN2CCCn2cccn2)cc1C (configuration not stated)	t
CCN(CCn1cccn1)C(=O)CC1C(=O)NCCN1Cc1cccc(OC)c1OC (configuration not stated)	f
O=C(CSc1ccccn1)Nc1nc2c(ccc3ccccc32)s1	f
COc1cccc(C2c3[nH]c4ccccc4c3CCN2Cc2cccc(C)n2)c1 (configuration not stated)	f
C=CCOc1ccc(/C=N/NC(=O)C(C)Sc2ccccn2)cc1OCC (configuration not stated)	f
CCc1ccccc1NC(=O)CN(C)C(=O)COc1ccc(C)nc1[N+](=O)[O-]	f
Cc1ccc(C(=O)N2CCCC(c3ccccc3)=N2)cc1	f

###

test-protocol: enhancers of STAT3 transcriptional signaling – U3A cells, luciferase, luminescence, MLSCN library, primary screen (AID 871);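 further: 0% = background luminescence of wells with medium and substrate only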
experimental-conditions: IL-6 STAT3-luciferase reporter, at 5.6 µM, hits give high values, 100% = signal with IL-6 EC80 alone
About 1,800 (0.95%) of roughly 190,000 compounds were called active. For the sample, actives were picked, then their nearest neighbours and some compounds at random.

molecule	readout-units	activation (% of control)
CCOC(=O)CC(=O)CSc1nc(-c2ccccc2)cc(-c2ccc(Cl)cc2)c1C#N	%	98.1
O=C(Nc1ccccc1)Nc1nc2ccccc2s1	%	100
CC(=O)n1c(C=Nc2ccccc2)c(O)c2ccccc21	%	134
CCC(C)NC(=O)c1nn(C)c(=O)c2ccccc12 (centres undefined)	%	100
O=C1NC2(CCCCCC2)C(=O)N1CCS(=O)(=O)Oc1ccccc1	%	104
Cc1ccc(-c2cc(C(=O)N3CCc4ccccc4C3)no2)cc1	%	98.3
O=C(COc1ccccc1)Nc1ccc(N2CCN(C(=O)c3cccs3)CC2)cc1	%	93.1
Cc1c(-c2ccccc2)n[nH]c1C(=O)N=Nc1c(O)[nH]c2ccccc12	%	84.5
COc1cccc(-n2cc(C(=O)O)c3ccccc3c2=O)c1	%	98.5
COC(=O)/C(C#N)=C/c1occc1C	%	94.2
CCCCn1c(=O)c(C(C)=O)c(O)c2ccccc21	%	106
N#Cc1c(C(F)(F)F)cc(-c2ccccc2)nc1SCC(=O)N1CCOCC1	%	107
COc1ccc(NC(=O)CC2C(=O)OCC3CCCCN32)cc1Cl (centres undefined)	%	102
CCOC(=O)N1CCN(CC(=O)Nc2ccc(F)cc2)CC1	%	108
COc1cccc(-n2c(=S)[nH]c3c(oc4ccccc43)c2=O)c1	%	136
Cc1csc2ncc(C(=O)N(Cc3ccccc3)c3ccccn3)c(=O)n12	%	144
CN1C(=O)/C(=N/OC(=O)c2ccccc2Br)c2ccccc21	%	100
O=C(c1cn2ccccc2n1)N1CCc2c([nH]c3ccccc23)C1c1ccccn1 (centres undefined)	%	105
Cc1cc(NC(=O)CN2CCCC(C)C2)n(-c2nc3ccccc3s2)n1 (centres undefined)	%	113
COc1ccccc1N1CCN(C(=O)c2ccc(Cl)c(S(=O)(=O)N3CCCC3)c2)CC1	%	97
O=C(C1=C(O)C(=O)N(Cc2ccccc2)C1c1cccnc1)c1ccco1 (centres undefined)	%	100
CC(C)OCCCNc1ncnc2c1[nH]c1ccc(F)cc12	%	36.3
COc1cccc2sc(NNC(=O)c3nc4ccccc4s3)nc12	%	120
O=C(O)CCCCc1nc2ccccc2s1	%	94.9
COCC(=O)N=Nc1c(O)[nH]c2ccccc12	%	92.2
Cc1cccc(N(CC(=O)N=Nc2c(O)[nH]c3ccccc23)S(C)(=O)=O)c1C	%	140
COc1ccc(NC(=O)C(=O)NCC(=O)Nc2cccc(C(F)(F)F)c2)cc1	%	98.3
Cc1ccc(S(=O)(=O)c2ccc(Cl)cc2)cc1S(=O)(=O)NC(C(=O)O)C(C)C (centres undefined)	%	102
CCOC(=O)N1CCN(CC(=O)Nc2cc(C)nn2-c2nc3ccccc3s2)CC1	%	162
O=C(Nc1ccc2cn[nH]c2c1)c1ccc(S(=O)(=O)N2CCOCC2)cc1	%	135
O=C(C1=C(O)C(=O)N(Cc2ccccc2)C1c1ccco1)c1ccco1 (centres undefined)	%	101
COc1cccc(-n2cc3c(c2-c2ccccc2)c(=O)n(C)c(=O)n3C)c1	%	110
COc1ccc(-c2c3c(=O)n(C)c(=O)n(C)c3cn2-c2cccc(OC)c2)cc1	%	154
COC(=O)c1ccc(CSc2nc3ccccc3c(=O)n2-c2cccc(OC)c2)o1	%	101
CSc1ccc(CN(C)CC(=O)NCc2ccc(F)cc2)cc1	%	106
COc1ccccc1N1CCN(C(=O)CSc2nnc(-c3ccoc3C)o2)CC1	%	93.7
Cc1cccc(C(=O)N2CCc3c([nH]c4ccccc34)C2CC(C)C)n1 (centres undefined)	%	145
O=C(NC1CCCCC1)N1CCc2[nH]c3ccccc3c2C1	%	96
O=C(O)c1ccc(/C=N/NC(=S)NCc2ccccc2)cc1	%	96.6
